# Tested on: K-562 leukemia
# assay text: NCI tumour cell line growth inhibition, 48 h
property: TGI

- compound: "Cc1cn2c(/C=C3/C(=O)N(C)c4ccccc43)c(C)nc2s1"
  TGI: "7.15 µM"
- compound: "N=c1c2ccccc2nc2oc3cc([N+](=O)[O-])ccc3n12"
  TGI: "> 100 µM"
- compound: "CCC[CH2][Sn]1([CH2]CCC)[O]C(=O)C(C(C)C)N=Cc2ccccc2[O]1 (stereo unspecified)"
  TGI: "1.04 µM"
- compound: "Cc1cc(S(=O)(=O)Nc2nc(N)nc(N3N=CCC3C)n2)c(SCC(=O)O)cc1Cl (stereo unspecified)"
  TGI: "> 10 µM"
- compound: "NCc1ccc(-c2ccc(CN)s2)s1"
  TGI: "> 100 µM"
- compound: "CN(C)CCCn1c2c(c3ccccc3c1=O)C(=O)c1ccccc1-2"
  TGI: "8.01 µM"
- compound: "Cc1c2c(cc3c1C(=O)C(=O)C([C@@H](C)CO)=C3O)C(C)(C)CCC2"
  TGI: "> 100 µM"
- compound: "CC(C)(C)c1cc(S(=O)(=O)O)c2oc(-c3ccccc3)cc(=O)c2c1"
  TGI: "> 100 µM"

Form field TGI, entry `O=C(CP(=O)(c1ccccc1)c1ccccc1)c1cccc(C(=O)CP(=O)(c2ccccc2)c2ccccc2)c1` : > 100 µM

Form field TGI, entry `CCOC(=O)CN=c1nc(SC)sc2c(C(=O)OCC)nc(Sc3ccccc3)n12` : > 100 µM

Form field TGI, entry `COC(=O)Nc1nc2ccc(Oc3ccc(NC(=O)Nc4ccccc4)cc3)cc2[nH]1` : > 9.63 µM

----------
# System: NCI-H460 lung
# assay text: NCI tumour cell line growth inhibition, 48 h
property: TGI (µM)
Numbers only here, please. The scale is µM.

The following compounds have reported results that may help.
- compound: "Cc1cccc(N/C(=C(/C(Cl)=C(Cl)Cl)[N+](=O)[O-])n2nnc3ccccc32)c1"
  unit descriptor: "µM"
  TGI: 45.1
- compound: "O=C(CSc1ncccn1)N/N=C/c1ccccc1OCc1ccccc1"
  unit descriptor: "µM"
  TGI: 94.9
- compound: "CN1CCC23c4c5ccc(Oc6nnnn6-c6ccccc6)c4OC2c2[nH]c4ccccc4c2CC3(O)C1C5 (stereo not given)"
  unit descriptor: "µM"
  TGI: 3.66

Next item in the queue.
Item: CCCCCCCCCCCCCC1CCC(CC)N1 (stereo not given) | System: NCI-H460 lung | TGI: 18.5

----------
Measured TGI, listed per entry.
# System: SNB-75 CNS
# assay text: NCI tumour cell line growth inhibition, 48 h
Where a SMILES comes first, the peptide text is derived from it. [ ]: non-standard residue; d: D form. Phe(4-Cl) = N[CH](Cc1ccc(Cl)cc1)C(=O)O

Form field TGI, entry `Cc1ccc(Nc2nc3c(s2)C(=O)c2ccccc2C3=O)c(C)c1` : 30.1 µM

Form field TGI, entry O=C(CC(O)(C(F)(F)F)C(F)(F)F)C(c1ccccc1)C(O)(C(F)(F)F)C(F)(F)F (stereo not drawn) : 27.2 µM

Form field TGI, entry CC(O)C(NC(=O)C(Cc1ccccc1)NC(=O)C(NC(=O)C(CCCCN)NC(=O)C(Cc1c[nH]c2ccccc12)NC(=O)C(Cc1ccc(O)cc1)NC(=O)C(Cc1ccc(Cl)cc1)NC(=O)C(N)Cc1ccccc1)C(C)O)C(N)=O (stereo not drawn) (H-F[Phe(4-Cl)]YWKTFT-NH2; configuration not given here) : 37.4 µM
